# EXPERIMENT DESCRIPTION: Toxicity against Photobacterium phosphoreum T3 mutant assessed as inhibition of luminescence after 15 mins by microtox test
# Type: organism-based
# ASSAY SETUP: Photobacterium phosphoreum T3 mutant (luminescent bacteria), read-out: LC50
Record form. Attribute: EC50 (luminescence inhibition) at 0.25 h. Fill in for each entry.

In: Report measured EC50 (luminescence inhibition) at 0.25 h; entry is CCCc1nc2c(C)cc(C(=O)NCCc3ccc(OC)c(OC)c3)cc2n1Cc1ccc(-c2ccccc2C(=O)O)cc1
Out: > 100 µg/mL

In: Report measured EC50 (luminescence inhibition) at 0.25 h; entry is CCCc1nc2c(C)cc(C(=O)NCCc3ccccc3F)cc2n1Cc1ccc(-c2ccccc2C(=O)O)cc1
Out: 65 µg/mL

In: Report measured EC50 (luminescence inhibition) at 0.25 h; entry is CCCc1nc2c(C)cc(C(=O)NCCc3ccc(OC)cc3)cc2n1Cc1ccc(-c2ccccc2C(=O)O)cc1
Out: > 100 µg/mL
